Value source: ChEMBL document CHEMBL4373632

# logP values compiled below
Test: Lipophilicity, logP of compound
Type: physicochemical
Conditions: octanol/water

O=C(CCc1ccccc1)Nc1cc2nc(C3CCCCC3)[nH]c2cc1N1CC1
4.57

Given CCN(CC)c1ccc(/C=C/C(=N/Nc2nc(C)cs2)C2=Cc3ccccc3C2)cc1 , respond with its logP.
6.03
